- Tested on: Fibroblast
- ASSAY COMMENT: Multiplex assay against human fibroblast
- Assay type: toxicity, cell-based
- TEST CONTEXT: 48 h, 1 µM, compound concentration 1 uM, replicate 2
VALUE TYPE: Population Hoechst High Intensity Objects (%)

[[record]]
structure_string = "CC1(COc2ccc3c(c2)ncn3-c2ccc3cccc(N4CCC(N)CC4)c3n2)COC1"
recorded_measurement = 0

[[record]]
structure_string = "N[C@@]1(C(=O)O)CO[C@H]2[C@H](C(=O)O)[C@H]21"
recorded_measurement = 11

[[record]]
structure_string = "CC[C@H]1OC(=O)[C@H](C)[C@@H](O[C@H]2C[C@@](C)(OC)[C@@H](O)[C@H](C)O2)[C@H](C)[C@@H](O[C@@H]2O[C@H](C)C[C@H](N(C)C)[C@H]2O)[C@@]2(C)CC(C)=C(O2)[C@H](C)[C@@H](O)[C@]1(C)O"
recorded_measurement = 2

[[record]]
structure_string = "O=C(O)Cc1ccccc1Nc1c(Cl)cccc1Cl"
recorded_measurement = 5

[[record]]
structure_string = "C[C@@H]1C[C@H]2[C@@H]3CCC4=CC(=O)C=C[C@]4(C)[C@@]3(F)[C@@H](O)C[C@]2(C)[C@@]1(O)C(=O)CO"
recorded_measurement = 4

[[record]]
structure_string = "C[C@H]1[C@H]2CC[C@H]3[C@@H]4CC=C5C[C@@H](N(C)C)CC[C@]5(C)[C@H]4CC[C@]23CN1C"
recorded_measurement = 0

[[record]]
structure_string = "C[C@H](NC(=O)c1c(C(F)F)nn(C)c1Oc1cccc(C(F)(F)F)c1)c1ccc(C(=O)O)cc1"
recorded_measurement = 3

[[record]]
structure_string = "Oc1c(CN2CCN(c3ccccn3)CC2)cc(Cl)c2cccnc12"
recorded_measurement = 0


* * *

- Tested on: HEK-293T
- ASSAY COMMENT: Multiplex assay against HEK293T
- Assay type: toxicity, cell-based
- TEST CONTEXT: human, 12 h, 1 µM, compound concentration 1 uM, replicate 1
Each record is given MET if its reported Population Apoptotic (%) is strictly below 40%. Records at or above 40% are given NOT MET.

[[record]]
molecule = "CNC[C@H](O)c1ccc(O)c(O)c1 [EPINEPHRINE]"
test_target = "HEK-293T"
class_label = "MET"

[[record]]
molecule = "N#Cc1c(N)nc(SCc2csc(-c3ccc(Cl)cc3)n2)c(C#N)c1-c1ccc(OCCO)cc1"
test_target = "HEK-293T"
class_label = "MET"

[[record]]
molecule = "O=C(O)c1cc2ccccc2c(Cc2c(O)c(C(=O)O)cc3ccccc23)c1O"
test_target = "HEK-293T"
class_label = "MET"

[[record]]
molecule = "O=C1COc2nccc(-c3ccccc3F)c2CN1Cc1cc(C(F)(F)F)cc(C(F)(F)F)c1"
test_target = "HEK-293T"
class_label = "MET"

[[record]]
molecule = "CCNC1(C(N)=O)CCN(c2ncnc3c2nc(-c2ccccc2Cl)n3-c2ccc(Cl)cc2)CC1"
test_target = "HEK-293T"
class_label = "NOT MET"

[[record]]
molecule = "CN(C)c1ccnc2sc3c(=O)n(N4CCCCCC4)cnc3c12"
test_target = "HEK-293T"
class_label = "NOT MET"

[[record]]
molecule = "CN1CCN(c2nc3cc(C(F)(F)F)ccc3n3cccc23)CC1.O=C(O)/C=C\\C(=O)O.O=C(O)/C=C\\C(=O)O"
test_target = "HEK-293T"
class_label = "MET"

[[record]]
molecule = "O=C(NCC(=O)N1CC[C@H](N[C@H]2CC[C@@](O)(c3ccc(-c4ncccn4)cn3)CC2)C1)c1cccc(C(F)(F)F)c1"
test_target = "HEK-293T"
class_label = "NOT MET"

[[record]]
molecule = "CC[C@H]1OC(=O)[C@H](C)[C@@H](O[C@H]2C[C@@](C)(OC)[C@@H](O)[C@H](C)O2)[C@H](C)[C@@H](O[C@@H]2O[C@H](C)C[C@H](N(C)C)[C@H]2O)[C@@]2(C)CC(C)=C(O2)[C@H](C)[C@@H](O)[C@]1(C)O"
test_target = "HEK-293T"
class_label = "MET"

[[record]]
molecule = "Cc1ccc(/C(=C\\CN2CCCC2)c2ccccn2)cc1"
test_target = "HEK-293T"
class_label = "MET"

[[record]]
molecule = "CC1(COc2ccc3c(c2)ncn3-c2ccc3cccc(N4CCC(N)CC4)c3n2)COC1"
test_target = "HEK-293T"
class_label = "NOT MET"

[[record]]
molecule = "c1cc(OCCCN2CCCCC2)ccc1CN1CCCCC1"
test_target = "HEK-293T"
class_label = "MET"


* * *

- System: HEK-293T
- ASSAY COMMENT: Multiplex assay against HEK293T
- Format: toxicity, cell-based
- TEST CONTEXT: human, 12 h, 10 µM, compound concentration 10 uM, replicate 1
VALUE TYPE: Population Pyknosed Nuclei (%)

[[record]]
molecule = "CCCn1c(=O)c2[nH]c(C3CCCC3)nc2n(CCC)c1=O"
test_target = "HEK-293T"
unit_spec = "%"
recorded_measurement = 19

[[record]]
molecule = "COc1cc(NC(=O)CCN2CCC(OC(=O)Nc3ccccc3-c3ccccc3)CC2)c(Cl)cc1CNC[C@H](O)c1ccc(O)c2[nH]c(=O)ccc12 [BATEFENTEROL]"
test_target = "HEK-293T"
unit_spec = "%"
recorded_measurement = 9

[[record]]
molecule = "CCCN1CCC[C@@H]2Cc3n[nH]cc3C[C@H]21.Cl [QUINPIROLE HYDROCHLORIDE]"
test_target = "HEK-293T"
unit_spec = "%"
recorded_measurement = 15

[[record]]
molecule = "O=C(O)Cc1ccccc1Nc1c(Cl)cccc1Cl [DICLOFENAC]"
test_target = "HEK-293T"
unit_spec = "%"
recorded_measurement = 14

[[record]]
molecule = "O=C(NCCO)c1cccc(-c2cc(Nc3ccc(OC(F)(F)F)cc3)ncn2)c1"
test_target = "HEK-293T"
unit_spec = "%"
recorded_measurement = 17

[[record]]
molecule = "O=C(O)c1cc2ccccc2c(Cc2c(O)c(C(=O)O)cc3ccccc23)c1O [PAMOIC ACID]"
test_target = "HEK-293T"
unit_spec = "%"
recorded_measurement = 12

[[record]]
molecule = "CC[C@H]1OC(=O)[C@H](C)[C@@H](O[C@H]2C[C@@](C)(OC)[C@@H](O)[C@H](C)O2)[C@H](C)[C@@H](O[C@@H]2O[C@H](C)C[C@H](N(C)C)[C@H]2O)[C@@]2(C)CC(C)=C(O2)[C@H](C)[C@@H](O)[C@]1(C)O"
test_target = "HEK-293T"
unit_spec = "%"
recorded_measurement = 19


* * *

- System: HEK-293T
- ASSAY COMMENT: Multiplex assay against HEK293T
- Format: toxicity, cell-based
- TEST CONTEXT: human, 48 h, 10 µM, compound concentration 10 uM, replicate 2
VALUE TYPE: Population Mitochondria Different-Phenotype (%)

[[record]]
compound = "CC(C)(C)c1ccc(S(=O)(=O)Nc2ccc(Cl)cc2C(=O)c2cc[n+]([O-])cc2)cc1"
recorded_measurement = 18

[[record]]
compound = "CCCn1c(=O)c2[nH]c(C3CCCC3)nc2n(CCC)c1=O"
recorded_measurement = 36

[[record]]
compound = "CN1CCN(c2nc3cc(C(F)(F)F)ccc3n3cccc23)CC1.O=C(O)/C=C\\C(=O)O.O=C(O)/C=C\\C(=O)O"
recorded_measurement = 65

[[record]]
compound = "CCCN1CCC[C@@H]2Cc3n[nH]cc3C[C@H]21.Cl [QUINPIROLE HYDROCHLORIDE]"
recorded_measurement = 28

[[record]]
compound = "Oc1c(CN2CCN(c3ccccn3)CC2)cc(Cl)c2cccnc12"
recorded_measurement = 81

[[record]]
compound = "Cc1ccc(C(C)(O)c2nc3ccccc3s2)c(C)c1 (centres undefined)"
recorded_measurement = 33

[[record]]
compound = "COc1c(C)cc(NC(=O)c2nn(Cc3ccc(F)cc3)c3c2CN(C(=O)c2ccc[nH]2)C[C@]3(C)C(N)=O)cc1C"
recorded_measurement = 90

[[record]]
compound = "c1cc(OCCCN2CCCCC2)ccc1CN1CCCCC1"
recorded_measurement = 38

[[record]]
compound = "COc1ccc2c(c1)C(C(=O)N(Cc1ccc(N(C)C)cc1)c1ccc(C(C)C)cc1)CCC2.Cl (centres undefined)"
recorded_measurement = 24


* * *

- Test system: U2OS
- ASSAY COMMENT: Multiplex assay against U2OS
- Assay type: toxicity, cell-based
- TEST CONTEXT: human, 12 h, 1 µM, compound concentration 1 uM, replicate 2
Reported Population Apoptotic (%) values for the following compounds.
VALUE TYPE: Population Apoptotic (%)

[[record]]
compound = "CC(=O)NCCc1c(Cc2ccccc2)[nH]c2ccccc12 [LUZINDOLE]"
test_target = "U2OS"
recorded_measurement = "100%"

[[record]]
compound = "CCNC1(C(N)=O)CCN(c2ncnc3c2nc(-c2ccccc2Cl)n3-c2ccc(Cl)cc2)CC1 [OTENABANT]"
test_target = "U2OS"
recorded_measurement = "85%"

[[record]]
compound = "CC(C)(C)c1ccc(S(=O)(=O)Nc2ccc(Cl)cc2C(=O)c2cc[n+]([O-])cc2)cc1 [VERCIRNON]"
test_target = "U2OS"
recorded_measurement = "100%"

[[record]]
compound = "Cc1ccc(-c2ccc(F)cc2COc2ccc(CCC(=O)O)cc2)cc1"
test_target = "U2OS"
recorded_measurement = "100%"

[[record]]
compound = "COc1cc(NC(=O)CCN2CCC(OC(=O)Nc3ccccc3-c3ccccc3)CC2)c(Cl)cc1CNC[C@H](O)c1ccc(O)c2[nH]c(=O)ccc12 [BATEFENTEROL]"
test_target = "U2OS"
recorded_measurement = "85%"

[[record]]
compound = "CN(C)CCCc1cc(C(=O)Nc2ccc(-c3ccncc3)cc2)ccc1O.Cl.Cl"
test_target = "U2OS"
recorded_measurement = "100%"

[[record]]
compound = "CC[C@H]1OC(=O)[C@H](C)[C@@H](O[C@H]2C[C@@](C)(OC)[C@@H](O)[C@H](C)O2)[C@H](C)[C@@H](O[C@@H]2O[C@H](C)C[C@H](N(C)C)[C@H]2O)[C@@]2(C)CC(C)=C(O2)[C@H](C)[C@@H](O)[C@]1(C)O"
test_target = "U2OS"
recorded_measurement = "84%"


Data origin: ChEMBL document CHEMBL5058577
